self-splicing fitness (ln) listing for selected sequences.
test_details: self-splicing fitness, log relative to wild type (ln ratio); higher = more splicing; Tetrahymena group I intron in knt gene, E. coli kanamycin selection, DiMSum; sequences stand for … in CUCUCU…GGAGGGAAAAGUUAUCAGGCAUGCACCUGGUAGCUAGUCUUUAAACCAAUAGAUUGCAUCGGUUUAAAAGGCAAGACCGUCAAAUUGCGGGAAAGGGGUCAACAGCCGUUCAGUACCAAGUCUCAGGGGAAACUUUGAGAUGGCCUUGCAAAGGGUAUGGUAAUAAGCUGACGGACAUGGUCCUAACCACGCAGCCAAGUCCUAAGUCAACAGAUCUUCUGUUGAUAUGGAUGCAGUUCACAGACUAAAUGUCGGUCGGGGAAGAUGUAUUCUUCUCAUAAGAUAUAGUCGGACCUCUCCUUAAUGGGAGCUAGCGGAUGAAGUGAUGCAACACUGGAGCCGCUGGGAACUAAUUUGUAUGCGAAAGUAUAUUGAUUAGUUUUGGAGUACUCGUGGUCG;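 also: selection with 25 µg/mL kanamycin versus none on LB agar overnight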
stated_conditions: 37 °C
Reply briefly: the number, and no unit.

Reference set, count: 3
AACGAGCAAUAUUACGCGAU; -1.99
GAAGAGCAAUAUUACGUGCG; -2.03
ACAAAGCAAUAUUACGUAGC; -2.01

Okay, next one:
Task item: Report self-splicing fitness (ln) for CGUGAGCAAUAUUACGUAAA please.
Reply: -2.03

====

self-splicing fitness (ln) listing for selected sequences.
test_details: self-splicing fitness, log relative to wild type (ln ratio); higher = more splicing; Tetrahymena group I intron in knt gene, E. coli kanamycin selection, DiMSum; sequences stand for … in CUCUCU…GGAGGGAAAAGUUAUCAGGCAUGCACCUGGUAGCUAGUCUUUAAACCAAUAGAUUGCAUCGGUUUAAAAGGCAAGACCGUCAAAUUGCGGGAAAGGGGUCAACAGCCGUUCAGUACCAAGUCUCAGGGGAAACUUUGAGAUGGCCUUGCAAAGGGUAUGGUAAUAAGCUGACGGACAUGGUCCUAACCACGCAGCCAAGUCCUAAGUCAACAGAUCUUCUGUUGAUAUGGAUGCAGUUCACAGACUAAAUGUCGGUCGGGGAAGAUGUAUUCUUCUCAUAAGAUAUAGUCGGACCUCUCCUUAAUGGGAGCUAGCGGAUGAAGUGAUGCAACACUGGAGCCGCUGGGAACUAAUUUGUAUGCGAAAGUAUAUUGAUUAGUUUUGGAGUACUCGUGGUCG
stated_conditions: 30 °C
Reply briefly: the number, and no unit.

Reference set, count: 3
AACCAGCAAUAUUACGGAGU; -1.66
AGACAGCAAUAUUACGAUAA; -2.68
UGAAAGCAAUAUUACGCCAA; -1.13

Task item: Report self-splicing fitness (ln) for UGGUAGCAAUAUUACGUCAU please.
Reply: -2.49

Task item: Report self-splicing fitness (ln) for GUCGAGCAAUAUUACGAUUU please.
Reply: -0.559

====

test_details: self-splicing fitness, log relative to wild type (ln ratio); higher = more splicing; Tetrahymena group I intron in knt gene, E. coli kanamycin selection, DiMSum; sequences stand for … in CUCUCU…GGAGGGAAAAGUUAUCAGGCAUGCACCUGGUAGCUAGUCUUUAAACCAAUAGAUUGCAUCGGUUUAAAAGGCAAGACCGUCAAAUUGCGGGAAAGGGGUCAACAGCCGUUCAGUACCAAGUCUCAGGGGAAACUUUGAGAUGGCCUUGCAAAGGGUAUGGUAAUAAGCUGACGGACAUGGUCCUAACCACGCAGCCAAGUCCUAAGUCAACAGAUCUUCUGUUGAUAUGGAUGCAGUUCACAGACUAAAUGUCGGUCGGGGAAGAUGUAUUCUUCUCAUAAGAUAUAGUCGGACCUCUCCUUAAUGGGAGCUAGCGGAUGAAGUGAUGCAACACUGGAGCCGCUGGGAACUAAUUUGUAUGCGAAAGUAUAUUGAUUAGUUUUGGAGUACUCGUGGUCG
stated_conditions: 30 °C
Returns the class for an entry based on its self-splicing fitness (ln). Class ranges: lower band (below -3), central band (-3 to below -1), upper band (-1 or more)

These recorded examples may help you get a feel for the data.
UGAAAGCAAUAUUACGGCCU; upper band
AGUUAGCAAUAUUACGGGAA; central band
AUAUAGCAAUAUUACGAGGG; central band
GAUCAGCAAUAUUACGCAGU; central band
GUACAGCAAUAUUACGCCCG; central band

Task item: Assign a category based on measured self-splicing fitness (ln) for GGUUAGCAAUAUUACGAGUU and give only the class name.
Reply: central band

Task item: Assign a category based on measured self-splicing fitness (ln) for GUCGAGCAAUAUUACGGUCA and give only the class name.
Reply: central band

Task item: Assign a category based on measured self-splicing fitness (ln) for CCGCAGCAAUAUUACGUUAU and give only the class name.
Reply: lower band

====

test_details: self-splicing fitness, log relative to wild type (ln ratio); higher = more splicing; Tetrahymena group I intron in knt gene, E. coli kanamycin selection, DiMSum; sequences stand for … in CUCUCU…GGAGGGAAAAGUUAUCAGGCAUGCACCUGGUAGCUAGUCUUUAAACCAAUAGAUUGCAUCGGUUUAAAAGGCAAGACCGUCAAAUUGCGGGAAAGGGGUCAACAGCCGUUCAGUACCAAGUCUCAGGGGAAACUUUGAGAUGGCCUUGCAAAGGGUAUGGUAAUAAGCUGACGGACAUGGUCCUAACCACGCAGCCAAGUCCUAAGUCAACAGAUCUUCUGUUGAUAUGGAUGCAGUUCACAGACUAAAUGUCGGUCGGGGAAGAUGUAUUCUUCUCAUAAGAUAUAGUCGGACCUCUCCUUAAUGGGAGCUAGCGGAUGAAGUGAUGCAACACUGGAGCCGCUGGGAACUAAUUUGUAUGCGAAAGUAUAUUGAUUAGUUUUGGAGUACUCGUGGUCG
stated_conditions: 30 °C
experimental_endpoint: self-splicing fitness (ln)

GUAGAGCAAUAUUACGAAUU; -2.35

Task item: Report self-splicing fitness (ln) for AGUUAGCAAUAUUACGUAGG please.
Reply: -4.63

Task item: Report self-splicing fitness (ln) for CUUAAGCAAUAUUACGGACU please.
Reply: -3.14

====

test_details: self-splicing fitness, log relative to wild type (ln ratio); higher = more splicing; Tetrahymena group I intron in knt gene, E. coli kanamycin selection, DiMSum; sequences stand for … in CUCUCU…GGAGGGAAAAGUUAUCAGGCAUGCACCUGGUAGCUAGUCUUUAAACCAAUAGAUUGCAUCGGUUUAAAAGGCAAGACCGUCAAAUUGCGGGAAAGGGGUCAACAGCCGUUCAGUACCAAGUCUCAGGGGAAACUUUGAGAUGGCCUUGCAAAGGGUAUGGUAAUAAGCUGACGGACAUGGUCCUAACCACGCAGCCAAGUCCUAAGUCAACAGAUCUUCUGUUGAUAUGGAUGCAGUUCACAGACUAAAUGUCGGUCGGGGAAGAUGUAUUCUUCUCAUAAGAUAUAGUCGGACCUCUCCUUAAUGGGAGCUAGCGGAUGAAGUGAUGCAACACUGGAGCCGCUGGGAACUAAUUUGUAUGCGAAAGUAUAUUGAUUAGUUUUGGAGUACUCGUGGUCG
stated_conditions: 37 °C
Returns the class for an entry based on its self-splicing fitness (ln). Class ranges: lower bin: < -2; middle bin: ≥ -2 and < -0.9; upper bin: ≥ -0.9

AGAGAGCAAUAUUACGUAGC; lower bin

Task item: Assign a category based on measured self-splicing fitness (ln) for CCAAAGCAAUAUUACGGCCG and give only the class name.
Reply: upper bin

Task item: Assign a category based on measured self-splicing fitness (ln) for GUUGAGCAAUAUUACGGACU and give only the class name.
Reply: lower bin

Task item: Assign a category based on measured self-splicing fitness (ln) for CAAUAGCAAUAUUACGCCAG and give only the class name.
Reply: upper bin

Task item: Assign a category based on measured self-splicing fitness (ln) for GCUCAGCAAUAUUACGGUUG and give only the class name.
Reply: lower bin

Task item: Assign a category based on measured self-splicing fitness (ln) for CUCAAGCAAUAUUACGAGGG and give only the class name.
Reply: lower bin

====

test_details: self-splicing fitness, log relative to wild type (ln ratio); higher = more splicing; Tetrahymena group I intron in knt gene, E. coli kanamycin selection, DiMSum; sequences stand for … in CUCUCU…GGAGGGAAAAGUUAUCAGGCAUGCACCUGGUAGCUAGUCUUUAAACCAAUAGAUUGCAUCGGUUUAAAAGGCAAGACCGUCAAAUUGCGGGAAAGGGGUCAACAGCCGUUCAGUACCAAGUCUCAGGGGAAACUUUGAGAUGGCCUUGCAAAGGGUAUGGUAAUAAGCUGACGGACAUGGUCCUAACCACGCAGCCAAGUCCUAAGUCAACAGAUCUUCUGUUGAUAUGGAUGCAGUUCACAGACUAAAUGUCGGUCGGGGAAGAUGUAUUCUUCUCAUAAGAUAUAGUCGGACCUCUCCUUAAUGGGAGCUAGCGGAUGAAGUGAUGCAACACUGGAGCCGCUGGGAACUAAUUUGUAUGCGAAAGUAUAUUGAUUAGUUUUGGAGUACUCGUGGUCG
stated_conditions: 30 °C
experimental_endpoint: self-splicing fitness (ln)
Reply briefly: the number, and no unit.

CCUCAGCAAUAUUACGACUG; -3.09
CCUCAGCAAUAUUACGGGGC; -3.68
AGGGAGCAAUAUUACGCAUU; -3.7

Task item: Report self-splicing fitness (ln) for GCCAAGCAAUAUUACGUGCA please.
Reply: -1.63

Task item: Report self-splicing fitness (ln) for ACCUAGCAAUAUUACGUACG please.
Reply: -2.46

Task item: Report self-splicing fitness (ln) for AGGUAGCAAUAUUACGAAAC please.
Reply: -3.37

Task item: Report self-splicing fitness (ln) for UAGCAGCAAUAUUACGUUUU please.
Reply: -2.6

Task item: Report self-splicing fitness (ln) for GUUAAGCAAUAUUACGCUAA please.
Reply: -2.35

Task item: Report self-splicing fitness (ln) for AUAUAGCAAUAUUACGAUUA please.
Reply: -0.958

Task item: Report self-splicing fitness (ln) for GCCCAGCAAUAUUACGACCC please.
Reply: -0.0226

Task item: Report self-splicing fitness (ln) for UCUGAGCAAUAUUACGCACU please.
Reply: -4.18

Task item: Report self-splicing fitness (ln) for GUCAAGCAAUAUUACGGGUU please.
Reply: -3.26

Task item: Report self-splicing fitness (ln) for CUCGAGCAAUAUUACGGGUG please.
Reply: -2.04

Task item: Report self-splicing fitness (ln) for GCGAAGCAAUAUUACGCGUA please.
Reply: -2.03

Task item: Report self-splicing fitness (ln) for CGCGAGCAAUAUUACGAAAA please.
Reply: -1.55

Task item: Report self-splicing fitness (ln) for AAGGAGCAAUAUUACGGUUU please.
Reply: -2.45

Task item: Report self-splicing fitness (ln) for UACCAGCAAUAUUACGGGGU please.
Reply: -4.41

Data provenance: the supplement of paper PMC7877785
